Kindly supply the reported Saluretic activity values for the records listed here.
- Tested on: Canis familiaris
- experiment-description: Saluretic activity in the dog measured as concentration of K+ in urinary excretion (2 animals/dose) at (dose 1.56 mg/Kg, po)
- Assay type: functional, Canis lupus familiaris, Urine
Mention the unit after the number when you answer.

Input: State Saluretic activity on Canis familiaris. Entry: "NS(=O)(=O)c1cc(S(=O)(=O)[O-])c(NCc2ccco2)cc1S(=O)(=O)c1ccccc1.[K+]"
Output: 0.25 m equiv 6hr-1 kg-1

Input: State Saluretic activity on Canis familiaris. Entry: NS(=O)(=O)c1cc(S(=O)(=O)[O-])c(NCc2ccco2)cc1[S+]([O-])C1CCCCC1.[Na+] (stereo unspecified)
Output: 0.33 m equiv 6hr-1 kg-1

Input: State Saluretic activity on Canis familiaris. Entry: "NS(=O)(=O)c1cc(S(=O)(=O)[O-])c(NCc2cccs2)cc1S(=O)(=O)C1CCCCC1.[Na+]"
Output: 1.05 m equiv 6hr-1 kg-1

Input: State Saluretic activity on Canis familiaris. Entry: "CN(c1ccccc1)c1cc(NCc2ccccc2)c(S(=O)(=O)[O-])cc1S(N)(=O)=O.[Na+]"
Output: 1.51 m equiv 6hr-1 kg-1

Input: State Saluretic activity on Canis familiaris. Entry: "CN(c1ccccc1)c1cc(NCCc2ccco2)c(S(=O)(=O)[O-])cc1S(N)(=O)=O.[K+]"
Output: 1.08 m equiv 6hr-1 kg-1

Input: State Saluretic activity on Canis familiaris. Entry: "NS(=O)(=O)c1cc(S(=O)(=O)[O-])c(NCc2ccccc2)cc1S(=O)(=O)C1CCCCC1.[Na+]"
Output: 0.56 m equiv 6hr-1 kg-1
